conditions: in n-butanol, 298.15 K
Quantity: solubility (mole fraction)

Given Smiles: CCOC(=O)Cc1c(C(=O)OCC)sc(N)c1C#N
Quantity: solubility (mole fraction)
Observed Measurement: 0.0071

---

conditions: in acetone, 303.15 K
Quantity: solubility (mole fraction)

Given Smiles: CCOC(=O)Cc1c(C(=O)OCC)sc(N)c1C#N
Observed Measurement: 0.0902

---

conditions: in n-butanol, 278.15 K

Given Smiles: CCOC(=O)Cc1c(C(=O)OCC)sc(N)c1C#N
solubility (mole fraction): 0.00266

---

details: in toluene, 283.15 K

Given Smiles: CCOC(=O)Cc1c(C(=O)OCC)sc(N)c1C#N
solubility (mole fraction): 0.000664

---

details: in n-butanol, 313.15 K

Given Smiles: CCOC(=O)Cc1c(C(=O)OCC)sc(N)c1C#N
solubility (mole fraction): 0.0144

---

settings: in acetone, 298.15 K
Quantity: solubility (mole fraction)

Given Smiles: CCOC(=O)Cc1c(C(=O)OCC)sc(N)c1C#N
Observed Measurement: 0.0801

---

conditions: in methanol, 283.15 K

Given Smiles: CCOC(=O)Cc1c(C(=O)OCC)sc(N)c1C#N
solubility (mole fraction): 0.00759

---

settings: in toluene, 313.15 K

Given Smiles: CCOC(=O)Cc1c(C(=O)OCC)sc(N)c1C#N
solubility (mole fraction): 0.00265

---

conditions: in acetone, 308.15 K

Given Smiles: CCOC(=O)Cc1c(C(=O)OCC)sc(N)c1C#N
solubility (mole fraction): 0.101

---

conditions: in ethyl acetate, 273.15 K

Given Smiles: CCOC(=O)Cc1c(C(=O)OCC)sc(N)c1C#N
solubility (mole fraction): 0.0237

---

details: in isopropanol, 303.15 K

Given Smiles: CCOC(=O)Cc1c(C(=O)OCC)sc(N)c1C#N
solubility (mole fraction): 0.0107

---

details: in ethyl acetate, 308.15 K

Given Smiles: CCOC(=O)Cc1c(C(=O)OCC)sc(N)c1C#N
solubility (mole fraction): 0.0473

---

details: in isopropanol, 298.15 K

Given Smiles: CCOC(=O)Cc1c(C(=O)OCC)sc(N)c1C#N
solubility (mole fraction): 0.00845

---

conditions: in n-butanol, 288.15 K
Quantity: solubility (mole fraction)

Given Smiles: CCOC(=O)Cc1c(C(=O)OCC)sc(N)c1C#N
Observed Measurement: 0.00438

---

details: in ethyl acetate, 288.15 K
Quantity: solubility (mole fraction)

Given Smiles: CCOC(=O)Cc1c(C(=O)OCC)sc(N)c1C#N
Observed Measurement: 0.0318

---

details: in ethanol, 273.15 K

Given Smiles: CCOC(=O)Cc1c(C(=O)OCC)sc(N)c1C#N
solubility (mole fraction): 0.0031

---

conditions: in n-propanol, 293.15 K

Given Smiles: CCOC(=O)Cc1c(C(=O)OCC)sc(N)c1C#N
solubility (mole fraction): 0.00618

---

settings: in acetonitrile, 278.15 K

Given Smiles: CCOC(=O)Cc1c(C(=O)OCC)sc(N)c1C#N
solubility (mole fraction): 0.0102

---

details: in n-butanol, 273.15 K

Given Smiles: CCOC(=O)Cc1c(C(=O)OCC)sc(N)c1C#N
solubility (mole fraction): 0.00204

---

conditions: in isopropanol, 273.15 K

Given Smiles: CCOC(=O)Cc1c(C(=O)OCC)sc(N)c1C#N
solubility (mole fraction): 0.00232

---

conditions: in acetonitrile, 308.15 K
Quantity: solubility (mole fraction)

Given Smiles: CCOC(=O)Cc1c(C(=O)OCC)sc(N)c1C#N
Observed Measurement: 0.0323

---

conditions: in n-butanol, 303.15 K

Given Smiles: CCOC(=O)Cc1c(C(=O)OCC)sc(N)c1C#N
solubility (mole fraction): 0.0091

---

conditions: in ethyl acetate, 313.15 K
Quantity: solubility (mole fraction)

Given Smiles: CCOC(=O)Cc1c(C(=O)OCC)sc(N)c1C#N
Quantity: solubility (mole fraction)
Observed Measurement: 0.0519

---

settings: in acetone, 278.15 K
Quantity: solubility (mole fraction)

Given Smiles: CCOC(=O)Cc1c(C(=O)OCC)sc(N)c1C#N
Observed Measurement: 0.0499

---

details: in methanol, 293.15 K

Given Smiles: CCOC(=O)Cc1c(C(=O)OCC)sc(N)c1C#N
solubility (mole fraction): 0.0118

---

settings: in methanol, 308.15 K

Given Smiles: CCOC(=O)Cc1c(C(=O)OCC)sc(N)c1C#N
solubility (mole fraction): 0.0214

---

settings: in acetonitrile, 303.15 K

Given Smiles: CCOC(=O)Cc1c(C(=O)OCC)sc(N)c1C#N
solubility (mole fraction): 0.0268

---

settings: in ethyl acetate, 303.15 K
Quantity: solubility (mole fraction)

Given Smiles: CCOC(=O)Cc1c(C(=O)OCC)sc(N)c1C#N
Quantity: solubility (mole fraction)
Observed Measurement: 0.0427

---

conditions: in toluene, 303.15 K

Given Smiles: CCOC(=O)Cc1c(C(=O)OCC)sc(N)c1C#N
solubility (mole fraction): 0.00171

---

conditions: in acetonitrile, 288.15 K

Given Smiles: CCOC(=O)Cc1c(C(=O)OCC)sc(N)c1C#N
solubility (mole fraction): 0.0151

---

details: in n-propanol, 308.15 K

Given Smiles: CCOC(=O)Cc1c(C(=O)OCC)sc(N)c1C#N
solubility (mole fraction): 0.012

---

details: in acetone, 318.15 K

Given Smiles: CCOC(=O)Cc1c(C(=O)OCC)sc(N)c1C#N
solubility (mole fraction): 0.126

---

settings: in acetonitrile, 313.15 K
Quantity: solubility (mole fraction)

Given Smiles: CCOC(=O)Cc1c(C(=O)OCC)sc(N)c1C#N
Observed Measurement: 0.0385

---

details: in ethanol, 293.15 K

Given Smiles: CCOC(=O)Cc1c(C(=O)OCC)sc(N)c1C#N
solubility (mole fraction): 0.00798

---

conditions: in acetonitrile, 293.15 K

Given Smiles: CCOC(=O)Cc1c(C(=O)OCC)sc(N)c1C#N
solubility (mole fraction): 0.0185

---

details: in ethanol, 303.15 K

Given Smiles: CCOC(=O)Cc1c(C(=O)OCC)sc(N)c1C#N
solubility (mole fraction): 0.0123

---

settings: in acetonitrile, 298.15 K
Quantity: solubility (mole fraction)

Given Smiles: CCOC(=O)Cc1c(C(=O)OCC)sc(N)c1C#N
Observed Measurement: 0.0225

---

details: in toluene, 278.15 K

Given Smiles: CCOC(=O)Cc1c(C(=O)OCC)sc(N)c1C#N
solubility (mole fraction): 0.00052

---

conditions: in acetonitrile, 283.15 K

Given Smiles: CCOC(=O)Cc1c(C(=O)OCC)sc(N)c1C#N
solubility (mole fraction): 0.0125

---

conditions: in methanol, 318.15 K

Given Smiles: CCOC(=O)Cc1c(C(=O)OCC)sc(N)c1C#N
solubility (mole fraction): 0.0313

---

conditions: in ethanol, 298.15 K
Quantity: solubility (mole fraction)

Given Smiles: CCOC(=O)Cc1c(C(=O)OCC)sc(N)c1C#N
Observed Measurement: 0.00998

---

details: in isopropanol, 288.15 K

Given Smiles: CCOC(=O)Cc1c(C(=O)OCC)sc(N)c1C#N
solubility (mole fraction): 0.00513

---

settings: in ethanol, 308.15 K
Quantity: solubility (mole fraction)

Given Smiles: CCOC(=O)Cc1c(C(=O)OCC)sc(N)c1C#N
Observed Measurement: 0.015

---

conditions: in toluene, 308.15 K

Given Smiles: CCOC(=O)Cc1c(C(=O)OCC)sc(N)c1C#N
solubility (mole fraction): 0.00215

---

details: in isopropanol, 283.15 K

Given Smiles: CCOC(=O)Cc1c(C(=O)OCC)sc(N)c1C#N
solubility (mole fraction): 0.00396

---

details: in n-butanol, 293.15 K

Given Smiles: CCOC(=O)Cc1c(C(=O)OCC)sc(N)c1C#N
solubility (mole fraction): 0.00559

---

details: in isopropanol, 308.15 K
Quantity: solubility (mole fraction)

Given Smiles: CCOC(=O)Cc1c(C(=O)OCC)sc(N)c1C#N
Observed Measurement: 0.0134

---

conditions: in ethanol, 278.15 K
Quantity: solubility (mole fraction)

Given Smiles: CCOC(=O)Cc1c(C(=O)OCC)sc(N)c1C#N
Quantity: solubility (mole fraction)
Observed Measurement: 0.00399

---

details: in n-propanol, 303.15 K

Given Smiles: CCOC(=O)Cc1c(C(=O)OCC)sc(N)c1C#N
solubility (mole fraction): 0.00961

---

settings: in ethyl acetate, 278.15 K

Given Smiles: CCOC(=O)Cc1c(C(=O)OCC)sc(N)c1C#N
solubility (mole fraction): 0.0257

---

conditions: in methanol, 273.15 K

Given Smiles: CCOC(=O)Cc1c(C(=O)OCC)sc(N)c1C#N
solubility (mole fraction): 0.00483

---

conditions: in methanol, 303.15 K
Quantity: solubility (mole fraction)

Given Smiles: CCOC(=O)Cc1c(C(=O)OCC)sc(N)c1C#N
Quantity: solubility (mole fraction)
Observed Measurement: 0.0176
